Could you please report measured pKd for the items listed next?
# ASSAYED_TARGET: T1, extracellular domain of activin receptor type IIB (ActRIIBecd), biotinylated (Homo sapiens (Human), UniProt Q13705 27-117, amino-biotinylated with amine-PEG3-Biotin)
# T1 construct: immobilised on a streptavidin-coated sensor chip; also called biotinylated ActRIIBecd; extracellular domain of ActRIIB
# T1 sequence: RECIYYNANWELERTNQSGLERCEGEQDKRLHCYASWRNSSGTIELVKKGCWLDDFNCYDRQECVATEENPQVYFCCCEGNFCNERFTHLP
# EXPERIMENTAL_DETAILS: Mean KD column of Table 5; method not restated (BIAcore as Example 5); species also listed in Table 4
Bridges are numbered along the chain shown (N, C = ends).
Just the number, please; pKd means minus log10 of the concentration in mol/L.

SEQ ID NO: 268, cysteine pairs C23-C27^a, C65-C65^b, C79-C114^b, C80-C112^b (designed binder, disulfides C23-C27 (intra), C65-C65 (inter), C79-C114 (inter), C80-C112 (inter), homodimer by intermolecular disulfide) VDFSDVGWNDWIVAPPGYHAFYCHGECPFPLADHLNSTNHAIVQTLVNSVAQAKHKQRKRLKSSCKRHPLYNSKIPKACCVPTELSAISMLYLDENEKVVLKNYQDMVVEGCGCR yielded pKd of 8.10

SEQ ID NO: 260, cysteine pairs C80-C114^b, C79-C112^b, C44-C48^a (designed binder, disulfides C80-C114 (inter), C79-C112 (inter), C44-C48 (intra), homodimer by intermolecular disulfide) AQAKHKQRKRLKSSCKRHPLYVDFSDVGWNDWIVAPPGYHAFYCHGECPFPLADHLNSTNHAIVQTLVNSVNSKIPKACCVPTELSAISMLYLDENEKVVLKNYQDMVVEGCGCR yielded pKd of 8.16

SEQ ID NO: 248, cysteine pairs C67-C71^a, C8-C41^a, C9-C43^a (designed binder, disulfides C67-C71 (intra), C8-C41 (intra), C9-C43 (intra)) NSKDPKACCVPTELSAPSPLYLDENEKPVLKNYQDMVVHGCGCRVDFKDVGWNDHAVAPPGYHAFYCHGECPFPLADHLNSDNHAIVQTKVNSV yielded pKd of 7.73

SEQ ID NO: 236, cysteine pairs C41-C59^a (designed binder, disulfide 41-59) NSKDPKACCVPTELSAPSPLYLDENEKPVLKNYQDMVVHGCGCRGQAKRKGYKRLKSSCKRHPLY yielded pKd of 7.31
